What growth was measured for each of the following?
- Test system: NCI-H322M lung
- experiment: NCI-60 one-dose screen, 48 h (100 = growth as untreated, 0 = no growth, -100 = all killed)
- condition.description: 10 µM unless noted
This is part of a sample that, as a whole, favours compounds with a hit. Of some 83,000 tested, about 20% had one in any assay.
One number for each entry, in %.

Example results:
Oc1ccccc1/C=N/Nc1nc2ccccc2s1 ... 63.1
O=C1/C(=C/c2ccccc2F)CNC/C1=C\c1ccccc1F ... 14.8
N#Cc1c(O)c2c(c(O)c1C#N)C(=O)c1ccccc1C2=O ... 38.4
COc1cc2cc(Oc3ccc(NC(=O)Nc4cccc(C(F)(F)F)c4)cc3)c(C)nc2cc1OCCN1CCCCC1 ... -14.5
O=C(NCc1ccco1)C1CCN(S(=O)(=O)c2ccc(Cl)cc2)CC1 ... 108

Kindly give each listed record's growth.
1. O=C1/C(=C/c2ccc(F)cc2)CN(Cc2cn(CCNc3ccnc4cc(Cl)ccc34)nn2)C/C1=C\c1ccc(F)cc1
2. c1ccc(-c2n(Cc3ccc4ccccc4c3)c3ccccc3[n+]2Cc2ccc3ccccc3c2)cc1
3. COc1cc(-c2nc(Nc3nc4ccccc4[nH]3)nc(N)c2C#N)cc(OC)c1OC
4. O=C1c2cc(S(=O)(=O)O)ccc2C(=O)c2c1cccc2[N+](=O)[O-]
5. COc1ccc(CSc2nc3cc(OC)c(OC)cc3c(=O)n2-c2ccc(Cl)cc2)cc1
6. O=C1CCC(N2Cc3c(C#CCCCNC(=O)c4cc5c(o4)C(=O)c4ccccc4C5=O)cccc3C2=O)C(=O)N1 (configuration not stated)
7. Nc1nc(-c2ccnc(Cl)c2)nn1-c1nc2ccccc2s1
8. O=C1N/C(=C\c2ccccc2)c2ncccc21

1. -0.345
2. 3.63
3. 83.2
4. 111
5. 105
6. -88.2
7. 100
8. 95.8

Look up growth for the entries below, preserving their order.
1. Clc1nc(-c2ccccn2)nc2sc3c(c12)CCCCCC3
2. COc1ccc(/C=C2\Oc3cc(C)c(Cl)cc3C2=O)cc1OC
3. O=c1oc2ccccc2cc1-c1csc(N=Nc2c(O)[nH]c3ccc(Cl)cc23)n1
4. COc1cccc(Nc2nc(NCCO)c3ccccc3n2)c1
5. CCN1CCN(c2nc3ccccc3c3c(=O)c4cc(F)ccc4sc23)CC1
6. OB(O)c1ccccc1
7. CC1=C(C/C=C(\C)CCC[C@H](C)CCC[C@H](C)CCCC(C)C)C(=O)c2ccccc2C1=O
8. O=C1NC(=O)C(CSc2ccccc2)(c2ccccc2)N1 (configuration not stated)

1: 84.5; 2: 107; 3: 105; 4: 86.4; 5: 81.2; 6: 111; 7: 103; 8: 86.5

Read off the recorded growth for "O=C(NCc1cccnc1)c1ccc([N+](=O)[O-])o1"
-6.13

Data origin, for the record: PubChem BioAssay (NCI)
